CLint scaled reference
- Protocol: Microsomal stability in human liver microsome assessed as intrinsic clearance
- Assay type: ADME
- Condition details: liver microsomes, read-out: CLH
Kindly provide the numeric value in mL/min/kg only, without the unit symbol.

Solved cases (3 shown):
[
  {
    "Molecule": "COc1ccc2nc(/C(C#N)=C/c3cc(C)n(-c4sc(C)cc4C#N)c3C)[nH]c2c1",
    "Attribute measured": "CLint scaled",
    "Units": "mL/min/kg",
    "Measured value": 290
  },
  {
    "Molecule": "COc1cc2nc(/C(C#N)=C/c3cc(C)n(-c4sc(C)cc4C#N)c3C)[nH]c2cn1",
    "Attribute measured": "CLint scaled",
    "Units": "mL/min/kg",
    "Measured value": 187
  },
  {
    "Molecule": "COc1cc2nc(/C(C#N)=C/c3cc(C)n(-c4sc(C)cc4C(N)=O)c3C)[nH]c2cn1",
    "Attribute measured": "CLint scaled",
    "Units": "mL/min/kg",
    "Measured value": 140
  }
]

Ask | Read the entry `COc1ccc2nc(NC(=O)c3cc(C)n(-c4sc(C)cc4C#N)c3C)[nH]c2c1` and write its reported CLint scaled.
Reply | 22.4

----------
- Tested on: Nucleolar RNA helicase 2 (Homo sapiens, UniProt Q9NR30)
- Sequence (Q9NR30 whole entry): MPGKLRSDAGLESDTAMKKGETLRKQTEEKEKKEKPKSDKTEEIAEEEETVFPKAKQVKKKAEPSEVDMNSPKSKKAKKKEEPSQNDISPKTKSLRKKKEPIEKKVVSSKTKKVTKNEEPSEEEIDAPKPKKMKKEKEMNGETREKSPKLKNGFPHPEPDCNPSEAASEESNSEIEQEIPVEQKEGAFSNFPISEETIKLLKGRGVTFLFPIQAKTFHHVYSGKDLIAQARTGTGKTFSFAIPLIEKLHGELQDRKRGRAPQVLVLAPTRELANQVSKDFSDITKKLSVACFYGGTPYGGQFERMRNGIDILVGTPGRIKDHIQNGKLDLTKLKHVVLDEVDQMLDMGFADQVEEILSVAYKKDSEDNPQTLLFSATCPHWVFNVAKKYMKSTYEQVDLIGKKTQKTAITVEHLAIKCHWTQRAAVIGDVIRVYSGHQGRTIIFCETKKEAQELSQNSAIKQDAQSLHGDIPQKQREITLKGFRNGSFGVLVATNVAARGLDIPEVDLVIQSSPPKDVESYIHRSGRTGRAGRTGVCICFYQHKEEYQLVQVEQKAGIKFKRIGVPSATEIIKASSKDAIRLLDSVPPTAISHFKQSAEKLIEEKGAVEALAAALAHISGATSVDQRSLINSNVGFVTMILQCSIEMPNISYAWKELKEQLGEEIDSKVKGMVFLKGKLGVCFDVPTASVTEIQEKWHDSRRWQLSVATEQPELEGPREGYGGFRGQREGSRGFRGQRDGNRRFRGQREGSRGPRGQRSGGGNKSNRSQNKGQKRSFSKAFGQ
- Protocol: Inhibition of N-terminal thioredoxin-tagged human recombinant DDX21 transformed in Escherichia coli BL21(DE3)pLysS cells
Attribute measured: IC50

Ask | Read the entry `COc1ccc2nc(NC(=O)c3cc(C)n(-c4sc(C)cc4C#N)c3C)[nH]c2c1` and write its reported IC50.
Reply | > 100 µM

----------
- Tested on: Probable ATP-dependent RNA helicase DDX59 (Homo sapiens)
- Sequence (Q5T1V6 whole entry): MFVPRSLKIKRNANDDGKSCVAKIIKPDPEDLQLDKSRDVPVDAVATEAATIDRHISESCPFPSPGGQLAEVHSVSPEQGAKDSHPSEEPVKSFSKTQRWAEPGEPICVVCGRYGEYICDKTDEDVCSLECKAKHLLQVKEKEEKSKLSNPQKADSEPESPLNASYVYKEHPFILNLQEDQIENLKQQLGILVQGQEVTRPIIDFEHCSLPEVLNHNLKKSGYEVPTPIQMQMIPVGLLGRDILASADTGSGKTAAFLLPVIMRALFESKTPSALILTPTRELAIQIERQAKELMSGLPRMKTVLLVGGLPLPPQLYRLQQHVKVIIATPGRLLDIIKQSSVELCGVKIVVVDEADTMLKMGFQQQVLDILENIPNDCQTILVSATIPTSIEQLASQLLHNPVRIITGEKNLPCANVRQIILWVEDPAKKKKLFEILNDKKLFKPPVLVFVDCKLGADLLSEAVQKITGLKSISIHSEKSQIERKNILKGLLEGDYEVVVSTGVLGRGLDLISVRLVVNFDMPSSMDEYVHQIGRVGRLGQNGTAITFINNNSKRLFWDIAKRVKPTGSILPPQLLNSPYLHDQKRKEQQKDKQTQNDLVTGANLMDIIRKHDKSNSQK
- Protocol: Inhibition of C-terminal 6xHis-tagged human recombinant DDX59 transformed in Escherichia coli BL21(DE3)pLysS cells
pIC50: −log10 of the molar value.
pIC50 reference

[
  {
    "Molecule": "COc1ccc2nc(NC(=O)c3cc(C)n(-c4sc(C)cc4C#N)c3C)[nH]c2c1",
    "Measured value": "< 4.00"
  }
]

Turning now to a further compound:
Ask | Read the entry `Cc1oc(-n2c(C)cc(/C=C(\C#N)c3nc4ccccc4[nH]3)c2C)c(C#N)c1C` and write its reported pIC50.
Reply | < 5.30
